system: CP266; test: qHTS profiling for inhibitors of Plasmodium falciparum proliferation (AID 504749); also: nearly all actives have a fitted effect of over 60% in size; details: P. falciparum in erythrocytes, SYBR Green DNA, 72 h; series mostly up to 28.7 µM
Records with an inconclusive call do not appear. Active and inactive are the calls of the source. Calls follow the shape of the dose curve; as a rule, active = well fitted inhibition curve with a large enough effect; inconclusive = small, poorly fitted or top-dose-only effect; inactive = flat fitted curve, though single readings scatter.
Respond only with the outcome that fits, drawn from yes = active, no = inactive

The following compounds have reported results that may help.
| COMPOUND | SUBJECT_OF_TEST | ANSWER_LABEL |
| --- | --- | --- |
| O=C(O)c1cc(N=Nc2ccc(O)c(C(=O)O)c2)ccc1O | CP266 | no |
| CCCCC[C@H](O)/C=C/[C@@H]1[C@H]2C/C(=C/CCCC(=O)O)O[C@H]2C[C@H]1O | CP266 | no |

Input line: Dear all, I need the recorded test outcome for `COc1ccc(-c2noc(CC(=O)O)c2-c2ccc(OC)cc2)cc1` , thank you.
Output line: no
